Reference source for all entries: patent US20200140532A1

Molecular target: T1, recombinant dog Aggrecan G1-IGD-G2 (dog, UniProt Q28343 20-693, limits assumed)
T1 construct: also called Dog G1-IGD-G2
Experiment: SPR (ProteOn), off-rate only indicative
MEASURED_QUANTITY: koff (s⁻¹)
# unit: s⁻¹ | format: bare number

| BINDER | MEASUREMENT_UNITS | koff |
| --- | --- | --- |
| C01010060 (606A07-ALB26) (VHH, not shown: small tags and cut ends) VHH: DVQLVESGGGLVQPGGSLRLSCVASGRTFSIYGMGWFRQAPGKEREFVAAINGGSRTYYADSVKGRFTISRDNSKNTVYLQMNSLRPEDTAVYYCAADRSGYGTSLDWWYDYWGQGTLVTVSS | s⁻¹ | 0.038 |
| C01010054 (114F08-ALB26) (VHH, not shown: small tags and cut ends, also called C010100054) VHH: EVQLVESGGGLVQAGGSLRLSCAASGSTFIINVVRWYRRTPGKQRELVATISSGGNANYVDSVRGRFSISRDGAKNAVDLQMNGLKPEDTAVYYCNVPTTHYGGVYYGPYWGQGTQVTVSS | s⁻¹ | 0.011 |
| C01010097 (608A05-ALB26) (VHH, not shown: small tags and cut ends) VHH: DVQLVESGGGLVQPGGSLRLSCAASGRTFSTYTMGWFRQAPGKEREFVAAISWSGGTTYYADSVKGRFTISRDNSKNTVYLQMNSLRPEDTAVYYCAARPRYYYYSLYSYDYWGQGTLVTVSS | s⁻¹ | 0.083 |
| C01010046 (601E08-ALB26) (VHH, not shown: small tags and cut ends) VHH: DVQLVESGGGLVQPGGSLRLSCTASGRTFSSYAVGWFRQAPGKEREFVAAISRSGRSTYYADSVKGRFTISRDNSKNTVYLQMNSLRPEDTAVYYCAAGLSYYSPHAYYDYWGQGTLVTVSS | s⁻¹ | 0.0071 |

Item: C01010094 (604F02-ALB26) (VHH, not shown: small tags and cut ends, also called C010100094) VHH: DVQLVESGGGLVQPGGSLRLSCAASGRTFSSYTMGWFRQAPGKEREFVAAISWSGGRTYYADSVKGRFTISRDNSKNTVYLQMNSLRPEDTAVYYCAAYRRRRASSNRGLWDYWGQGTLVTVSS | koff: 0.12
